assay: PPB assay: recovery rate in the dialysis device (five species plasma); assay type: in vitro ADME; conditions: CD-1 (mouse), Sprague-Dawley (rat), Beagle (dog), cynomolgus monkey, human
Where a name gives a salt, the structure may show the parent alone.
recordedMetric: recovery at 4 h, 2 μM

I would be grateful if you could share the reported recovery at 4 h, 2 μM for Cc1cc(N)c(F)c(C2Cc3nc(OC[C@@]45CCCN4C[C@H](F)C5)nc(N4CC5CCC(C4)N5)c3CO2)c1C(F)(F)F (stereo partly shown) [Compound 1 hydrochloride] .
82.4 to 110%

* * *

Would you mind telling me the reported clearance of each entry?
assay: Pharmacokinetic study of oral and intravenously injected compounds in CD-1 mouse; assay type: in vivo; conditions: male, CD-1, plasma, intravenous (IV), about 2 mg/kg
Structures can show the parent of a compound that is named as a salt.
Numbers only, in mL/min/kg.

Nc1ccc(C(F)(F)F)c([C@H]2Cc3nc(OC[C@@]45CCCN4C[C@H](F)C5)nc(N4CC5CCC(C4)N5)c3CO2)c1F (single isomer, unassigned) [Compound 20B] ... 138

# ---- query molecule ----
Consider the molecule shown here: Cc1cc(N)c(F)c(C2Cc3nc(OC[C@@]45CCCN4C[C@H](F)C5)nc(N4CC5CCC(C4)N5)c3CO2)c1C(F)(F)F (some centres unmarked) [Compound 1 hydrochloride] What is its recorded clearance?
106
